target desc: mushroom tyrosinase (Agaricus bisporus)
Sequence (C7FF04 2-392): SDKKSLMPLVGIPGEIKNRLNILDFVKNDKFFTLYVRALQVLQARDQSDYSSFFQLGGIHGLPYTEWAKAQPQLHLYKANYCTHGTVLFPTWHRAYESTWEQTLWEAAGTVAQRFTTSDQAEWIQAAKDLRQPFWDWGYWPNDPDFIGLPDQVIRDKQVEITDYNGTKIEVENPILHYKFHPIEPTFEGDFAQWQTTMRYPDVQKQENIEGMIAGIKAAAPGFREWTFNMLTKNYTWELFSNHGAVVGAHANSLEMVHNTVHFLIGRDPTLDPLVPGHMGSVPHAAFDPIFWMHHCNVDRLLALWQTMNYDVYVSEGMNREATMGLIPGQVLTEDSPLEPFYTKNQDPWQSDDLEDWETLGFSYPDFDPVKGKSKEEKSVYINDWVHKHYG
protocol notes: Enzyme kinetic analysis with tyrosinase (Lineweaver-Burk and Dixon plots, L-tyrosine substrate)
Format: biochemical
assay conditions: Dixon plot; L-tyrosine substrate; read-out: Inhibition Constant (Ki)
measured property: Ki (µM)
Kindly answer with a numeric value in µM, unit omitted.

// sample CC1=C[C@H]2c3c(O)cc(-c4cc5ccc(O)cc5o4)cc3O[C@@]3(c4ccc(O)cc4O)Oc4cc(O)ccc4[C@H](C1)[C@@H]23 [Mulberrofuran G] , its Ki was 5.19

---

target desc: mushroom tyrosinase (Agaricus bisporus)
protocol notes: Mushroom tyrosinase inhibitory assay, L-DOPA oxidation (diphenolase activity)
Type: biochemical
Design: purchased Sigma-Aldrich Co. (St. Louis, MO, USA)
assay conditions: IC50 (μM) Value L-DOPA, L-DOPA substrate (diphenolase), 25 °C, pH 6.5; mean ± SEM of triplicate
measured property: IC50 (µM)
Numbers only here, please. The scale is µM.

Recorded IC50 (molecule CC(C)=CCc1c(-c2ccc(O)cc2O)oc2c(C3C=C(C)CC(c4ccc(O)cc4O)C3C(=O)c3ccc(O)cc3O)c(O)cc(O)c2c1=O (stereo not shown) [Kuwanon G] ): 44
